- target.entity: HIV-1 protease (Human immunodeficiency virus type 1 group M subtype B)
- assay.details: HIV protease assay (Ki)
- Assay type: biochemical
- recorded.conditions: Table 3; read-out: HIV-1 Ki
measured.property: Ki
Please append the unit to your numeric answer.

Below: 3 compounds and their reported Ki.
Cc1cccc(C)c1OCC(=O)N[C@@H](Cc1ccccc1)[C@@H](O)C[C@H](CC(C)C)NC(=O)[C@@H](NC(=O)N1CCOCC1)C(C)C [(45)] ... 0.05 nM
Cc1cccc(C)c1OCC(=O)N[C@@H](CC(C)C)C[C@H](O)[C@H](Cc1ccccc1)NC(=O)[C@H](C(C)C)N1CCCNC1=O [(43)] ... 0.176 nM
Cc1cccc(C)c1OCC(=O)N[C@@H](Cc1ccccc1)[C@@H](O)C[C@H](CC(C)C)NC(=O)[C@H](C(C)C)N1CCCNC1=O [(16)] ... 0.008 nM

Query compound follows.
Lab book: Ki of CC(C)C[C@@H](C[C@H](O)[C@H](Cc1ccccc1)NC(=O)OCc1cncs1)NC(=O)[C@H](C(C)C)N1CCCNC1=O [Compound (19)] noted as 0.07 nM

----------
- target.entity: HIV-1 protease (Human immunodeficiency virus type 1 group M subtype B)
- assay.details: HIV protease assay (Ki)
- Format: biochemical
- recorded.conditions: Table 2; read-out: HIV-1 Ki
Examples of compounds with documented pKi follow.
Hey, just a heads up that pKi is the negative log base 10 of the concentration in molar.

Lab book: pKi of Cc1cccc(C)c1OCC(=O)N[C@@H](Cc1ccccc1)[C@@H](O)C[C@H](Cc1ccccc1)NC(=O)[C@H](C(C)C)N1CCCNC1=O [(24), reference compound] noted as 10.92

Lab book: pKi of CC(C)C[C@@H](C[C@H](O)[C@H](Cc1ccccc1)NC(=O)[C@@H](NC(=O)OCc1ccccc1)C(C)C)NC(=O)c1cccc(O)c1 [Compound (60)] noted as 9.70

Lab book: pKi of Cc1cccc(C)c1OCC(=O)N[C@@H](Cc1ccccc1)[C@@H](O)C[C@H](CC(C)C)NC(=O)[C@@H](NC(=O)OCc1ccccn1)C(C)C [(30)] noted as 10.77

----------
Examples of molecules with documented pEC50 follow.
- Tested on: HIV-1
- assay.details: HIV antiviral assay (EC50)
- Format: cell-based
- recorded.conditions: Table 3
Hey, just a heads up that pEC50 is the negative log base 10 of the concentration in molar.

Below: 3 molecules and their reported pEC50.
Cc1cccc(C)c1OCC(=O)N[C@@H](Cc1ccccc1)[C@@H](O)C[C@H](CC(C)C)NC(=O)[C@H](C(C)C)N1CCCNC1=O ... 7.64
Cc1cccc(C)c1OCC(=O)N[C@@H](Cc1ccccc1)[C@@H](O)C[C@H](CC(C)C)NC(=O)[C@@H](NC(=O)N1CCOCC1)C(C)C ... 6.77
CC(C)C[C@@H](C[C@H](O)[C@H](Cc1ccccc1)NC(=O)OCc1cncs1)NC(=O)[C@H](C(C)C)N1CCCNC1=O ... 6.30

Lab book: pEC50 of Cc1cccc(C)c1OCC(=O)N[C@@H](CC(C)C)C[C@H](O)[C@H](Cc1ccccc1)NC(=O)[C@H](C(C)C)N1CCCNC1=O noted as 6.27

----------
- Tested on: normal cells
- assay.details: toxicity against normal cells (IC50)
- Format: cell-based
- recorded.conditions: Table 2
pIC50: −log10 of the molar value.
measured.property: pIC50

Below: 2 compounds and their reported pIC50.
Cc1cccc(C)c1OCC(=O)N[C@@H](Cc1ccccc1)[C@@H](O)C[C@H](CC(C)C)NC(=O)[C@@H](NC(=O)OCc1ccccn1)C(C)C [(30)] ... < 4.00
Cc1cccc(C)c1OCC(=O)N[C@@H](Cc1ccccc1)[C@@H](O)C[C@H](Cc1ccccc1)NC(=O)[C@H](C(C)C)N1CCCNC1=O [(24), reference compound] ... < 4.00

Query compound follows.
Record Cc1cccc(C)c1OCC(=O)N[C@@H](Cc1ccccc1)[C@@H](O)C[C@H](CC(C)C)NC(=O)c1ccc(N)cc1 [(31)] ; system normal cells; pIC50 = < 4.00

----------
Examples of compounds with documented pKi follow.
- target.entity: 84V mutant HIV-1 protease (Human immunodeficiency virus type 1 group M subtype B, UniProt P04585, I572V)
- assay.details: HIV protease assay, 84V mutant (Ki)
- Format: biochemical
- recorded.conditions: Table 1
Hey, just a heads up that pKi is the negative log base 10 of the concentration in molar.

Cc1cccc(C)c1OCC(=O)N[C@@H](Cc1ccccc1)[C@@H](O)C[C@H](CC(C)C)NC(=O)[C@H](C(C)C)N1CCCNC1=O [(16)] ... 10.04

Query compound follows.
Lab book: pKi of CC(C)[C@H](NC(=O)OCc1ccccn1)C(=O)N[C@@H](Cc1ccccc1)C[C@H](O)[C@H](Cc1ccccc1)NC(=O)[C@@H](NC(=O)OCc1ccccn1)C(C)C [(22), reference compound] noted as 9.68

----------
- target.entity: HIV-1 protease (Human immunodeficiency virus type 1 group M subtype B)
- assay.details: HIV protease assay (Ki)
- Assay type: biochemical
- recorded.conditions: Table 1; read-out: HIV-1 Ki
- Source text: This example illustrates the HIV-1 protease inhibition activity (Ki), HIV-1 antiviral data (EC50), and the toxicity against normal cells (IC50), for particular compounds of formula (I). The HIV protease assay was done according to the protocol described in Kageyama et al, Antimicrob. Agents Chemother., 37, 272 (1993). The HIV antiviral assay was done according to the protocol described in Weislow et al., J. National Cancer Inst. 81, 577 (1989). […]
Examples of compounds with documented Ki follow.
Please append the unit to your numeric answer.

Cc1cccc(C)c1OCC(=O)N[C@@H](Cc1ccccc1)[C@@H](O)C[C@H](CC(C)C)NC(=O)NC(C)(C)C ... 0.1 nM
Cc1cccc(C)c1OCC(=O)N[C@@H](Cc1ccccc1)[C@@H](O)C[C@H](CC(C)C)NC(=O)[C@@H](NC(=O)OCc1ccccn1)C(C)C ... 0.017 nM

Query compound follows.
Lab book: Ki of CC(C)[C@H](NC(=O)OCc1ccccn1)C(=O)N[C@@H](Cc1ccccc1)C[C@H](O)[C@H](Cc1ccccc1)NC(=O)[C@@H](NC(=O)OCc1ccccn1)C(C)C [(22), reference compound] noted as 0.015 nM

----------
- target.entity: HIV-1 protease (Human immunodeficiency virus type 1 group M subtype B, UniProt P04585)
- assay.details: HIV protease assay (Ki)
- Type: biochemical
- recorded.conditions: Table 1; read-out: HIV-1 Ki
- Description: This example illustrates the HIV-1 protease inhibition activity (Ki), HIV-1 antiviral data (EC50), and the toxicity against normal cells (IC50), for particular compounds of formula (I). The HIV protease assay was done according to the protocol described in Kageyama et al, Antimicrob. Agents Chemother., 37, 272 (1993). The HIV antiviral assay was done according to the protocol described in Weislow et al., J. National Cancer Inst. 81, 577 (1989). […]
Examples of compounds with documented pKi follow.
Hey, just a heads up that pKi is the negative log base 10 of the concentration in molar.

Below: 3 compounds and their reported pKi.
Cc1cccc(C)c1OCC(=O)N[C@@H](Cc1ccccc1)[C@@H](O)C[C@H](CC(C)C)NC(=O)[C@H](C(C)C)N1CCCNC1=O ... 11.15
CC(C)C[C@@H](C[C@H](O)[C@H](Cc1ccccc1)NC(=O)[C@@H](NC(=O)OCc1ccccc1)C(C)C)NC(=O)c1cccc(O)c1 ... 9.70
CC(C)C[C@@H](C[C@H](O)[C@H](Cc1ccccc1)NC(=O)OCc1ccccc1)NC(=O)[C@H](C(C)C)N1CCCNC1=O ... 10.19

Query compound follows.
Lab book: pKi of Cc1cccc(C)c1OCC(=O)N[C@@H](Cc1ccccc1)[C@@H](O)C[C@H](CC(C)C)NC(=O)[C@@H](NC(=O)N1CCOCC1)C(C)C noted as 10.30

----------
- assay.details: Rat P.O. pharmacokinetics and oral bioavailability
- Assay type: in vivo, rats
- recorded.conditions: P.O. about 37 mg/kg, PEG 300 vehicle
Examples of compounds with documented Rat P.O. tmax follow.
// units = h; emit number, no label

Cc1cccc(C)c1OCC(=O)N[C@@H](Cc1ccccc1)[C@@H](O)C[C@H](CC(C)C)NC(=O)[C@@H](NC(=O)N1CCOCC1)C(C)C [(45)] ... 0.267

Lab book: Rat P.O. tmax of Cc1cccc(C)c1OCC(=O)N[C@@H](CC(C)C)C[C@H](O)[C@H](Cc1ccccc1)NC(=O)[C@H](C(C)C)N1CCCNC1=O [(43)] noted as 2

----------
- target.entity: HIV-1 protease (Human immunodeficiency virus type 1 group M subtype B, UniProt P04585)
- assay.details: HIV protease assay (Ki)
- Format: biochemical
- recorded.conditions: Table 1; read-out: HIV-1 Ki
measured.property: pKi
Hey, just a heads up that pKi is the negative log base 10 of the concentration in molar.

Below: 5 compounds and their reported pKi.
CC(C)C[C@@H](C[C@H](O)[C@H](Cc1ccccc1)NC(=O)N1CCOCC1)NC(=O)[C@H](C(C)C)N1CCCNC1=O ... 9.24
Cc1cccc(C)c1OCC(=O)N[C@@H](Cc1ccccc1)[C@@H](O)C[C@H](Cc1ccccc1)NC(=O)[C@H](C(C)C)N1CCCNC1=O [(24), reference compound] ... 10.89
CC[C@H](C)[C@H](NC(=O)OCc1ccccc1)C(=O)N[C@@H](Cc1ccccc1)[C@@H](O)C[C@H](CC(C)C)NC(=O)c1cccc(O)c1 ... 9.80
Cc1cccc(C)c1OCC(=O)N[C@@H](Cc1ccccc1)[C@@H](O)C[C@H](CC(C)C)NC(=O)[C@@H](NS(C)(=O)=O)C(C)C ... 10.47
Cc1cccc(C)c1OCC(=O)N[C@@H](CC(C)C)C[C@H](O)[C@H](Cc1ccccc1)NC(=O)[C@H](C(C)C)N1CCCNC1=O ... 9.75

Query compound follows.
Lab book: pKi of CCOC(=O)N[C@H](C(=O)N[C@@H](CC(C)C)C[C@H](O)[C@H](Cc1ccccc1)NC(=O)COc1c(C)cccc1C)C(C)C noted as 10.27

Values were extracted from patent US7132420B2.
